System: Rattus norvegicus
Assay: Organ distribution in rat brain 2 hr after intravenous injection
Type: ADME, organism-based
Settings: in vivo
Mark criterion met for reported Dose/organ of 0.7% or greater; mark criterion not met for anything smaller.

SMILES NOTATION	ASSAYED TARGET	CLASS
C[N+](C)(C)CC[Se]CC[N+](C)(C)C	Rattus norvegicus	criterion not met
C1CN(CC[Se]CCN2CCOCC2)CCO1	Rattus norvegicus	criterion not met
C1CCN(CC[Se]CCN2CCCCC2)CC1	Rattus norvegicus	criterion met

Here's the next entry for you.
input: Threshold query (Dose/organ >= 0.7%) on CC(C)N(CC[Se]CCN(C(C)C)C(C)C)C(C)C
output: criterion not met

---

System: Rattus norvegicus
Assay: Organ distribution in rat blood 30 minutes after intravenous injection
Assay type: ADME, organism-based
Details: in vivo, 0.5 h
TEST READOUT: Dose/organ
Lab note: write values as number then unit, every time.

Some entries whose results are on file:
SMILES NOTATION	ASSAYED TARGET	Dose/organ
C1CN(CC[Se]CCN2CCOCC2)CCO1	Rattus norvegicus	2.82%
C1CCN(CC[Se]CCN2CCCCC2)CC1	Rattus norvegicus	0.87%
CC(C)N(CC[Se]CCN(C(C)C)C(C)C)C(C)C	Rattus norvegicus	1.17%

Here is another compound to look at.
input: Hi! What's the reported Dose/organ for C[N+](C)(C)CC[Se]CC[N+](C)(C)C on Rattus norvegicus?
output: 5.16%

---

System: Rattus norvegicus
Test: Organ distribution in rat blood 2 minutes after intravenous injection
Type: ADME, organism-based
Settings: in vivo
TEST READOUT: Dose/organ (%)
# unit: % | format: bare number

SMILES NOTATION	TEST READOUT	OBS VALUE
CC(C)N(CC[Se]CCN(C(C)C)C(C)C)C(C)C	Dose/organ	2.96
C1CN(CC[Se]CCN2CCOCC2)CCO1	Dose/organ	3.13
CN(C)CC[Se]CCN(C)C	Dose/organ	2.82

input: Hi! What's the reported Dose/organ for C1CCN(CC[Se]CCN2CCCCC2)CC1 on Rattus norvegicus?
output: 4.58

---

System: Rattus norvegicus
Test: Organ distribution in rat liver 2 minutes after intravenous injection
Format: ADME, organism-based
Details: in vivo
TEST READOUT: Dose/organ (%)
# unit: % | format: bare number

Some entries whose results are on file:
SMILES NOTATION	ASSAYED TARGET	OUTPUT UNIT	Dose/organ
CN(C)CC[Se]CCN(C)C	Rattus norvegicus	%	12.82
CC(C)N(CC[Se]CCN(C(C)C)C(C)C)C(C)C	Rattus norvegicus	%	11.9
C1CCN(CC[Se]CCN2CCCCC2)CC1	Rattus norvegicus	%	12

input: Requested field: Dose/organ. Item: C1CN(CC[Se]CCN2CCOCC2)CCO1
output: 18.3

---

Tested on: Rattus norvegicus
Test: Organ distribution in rat kidney 2 hr after intravenous injection
Type: ADME, organism-based
Details: in vivo
Mark Criterion met for reported Dose/organ of 3% or greater; mark Criterion not met for anything smaller.

input: Threshold query (Dose/organ >= 3%) on C1CN(CC[Se]CCN2CCOCC2)CCO1
output: Criterion met

input: Threshold query (Dose/organ >= 3%) on CN(C)CC[Se]CCN(C)C
output: Criterion met

input: Threshold query (Dose/organ >= 3%) on C[N+](C)(C)CC[Se]CC[N+](C)(C)C
output: Criterion not met

input: Threshold query (Dose/organ >= 3%) on C1CCN(CC[Se]CCN2CCCCC2)CC1
output: Criterion not met

input: Threshold query (Dose/organ >= 3%) on CC(C)N(CC[Se]CCN(C(C)C)C(C)C)C(C)C
output: Criterion not met

---

System: Rattus norvegicus
Assay: Organ distribution in rat liver 2 hr after intravenous injection
Type: ADME, organism-based
Details: in vivo
Mark TRUE for reported Dose/organ of 20% or greater; mark FALSE for anything smaller.

input: Threshold query (Dose/organ >= 20%) on C1CCN(CC[Se]CCN2CCCCC2)CC1
output: FALSE

input: Threshold query (Dose/organ >= 20%) on CN(C)CC[Se]CCN(C)C
output: FALSE

input: Threshold query (Dose/organ >= 20%) on CC(C)N(CC[Se]CCN(C(C)C)C(C)C)C(C)C
output: FALSE

input: Threshold query (Dose/organ >= 20%) on C1CN(CC[Se]CCN2CCOCC2)CCO1
output: TRUE

input: Threshold query (Dose/organ >= 20%) on C[N+](C)(C)CC[Se]CC[N+](C)(C)C
output: FALSE

---

The entries below are paired with their reported Dose/organ.
System: Rattus norvegicus
Test: Organ distribution in rat muscle 2 minutes after intravenous injection
Type: ADME, organism-based, Muscle tissue
Conditions: in vivo
Lab note: write values as number then unit, every time.

SMILES NOTATION	OBS VALUE
C1CCN(CC[Se]CCN2CCCCC2)CC1	7.39%
CN(C)CC[Se]CCN(C)C	14.1%
CC(C)N(CC[Se]CCN(C(C)C)C(C)C)C(C)C	9.88%

Here is another compound to look at.
input: Requested field: Dose/organ. Item: C1CN(CC[Se]CCN2CCOCC2)CCO1
output: 10.5%

---

Test system: Rattus norvegicus
Assay: Organ distribution in rat brain 2 minutes after intravenous injection
Assay type: ADME, organism-based
Conditions: in vivo
TEST READOUT: Dose/organ (%)
# unit: % | format: bare number

Some entries whose results are on file:
SMILES NOTATION	OUTPUT UNIT	Dose/organ
C1CN(CC[Se]CCN2CCOCC2)CCO1	%	3.19
C1CCN(CC[Se]CCN2CCCCC2)CC1	%	1.09
CC(C)N(CC[Se]CCN(C(C)C)C(C)C)C(C)C	%	0.25

Here is another molecule to look at.
input: Requested field: Dose/organ. Item: CN(C)CC[Se]CCN(C)C
output: 0.49

---

Tested on: Rattus norvegicus
Assay: Organ distribution in rat heart 2 hr after intravenous injection
Type: ADME, organism-based
Conditions: in vivo
TEST READOUT: Dose/organ (%)
# unit: % | format: bare number

Some entries whose results are on file:
SMILES NOTATION	OUTPUT UNIT	Dose/organ
CN(C)CC[Se]CCN(C)C	%	0.54
CC(C)N(CC[Se]CCN(C(C)C)C(C)C)C(C)C	%	0.3
C1CN(CC[Se]CCN2CCOCC2)CCO1	%	0.18
C1CCN(CC[Se]CCN2CCCCC2)CC1	%	0.19

Here is another molecule to look at.
input: Requested field: Dose/organ. Item: C[N+](C)(C)CC[Se]CC[N+](C)(C)C
output: 0.05

---

System: Rattus norvegicus
Assay: Organ distribution in rat muscle 30 minutes after intravenous injection
Type: ADME, organism-based, Muscle tissue
Conditions: in vivo, 0.5 h
TEST READOUT: Dose/organ (%)
# unit: % | format: bare number

Some entries whose results are on file:
SMILES NOTATION	OUTPUT UNIT	Dose/organ
C[N+](C)(C)CC[Se]CC[N+](C)(C)C	%	9.52
C1CCN(CC[Se]CCN2CCCCC2)CC1	%	13.4
C1CN(CC[Se]CCN2CCOCC2)CCO1	%	14.4
CC(C)N(CC[Se]CCN(C(C)C)C(C)C)C(C)C	%	14.2

input: Requested field: Dose/organ. Item: CN(C)CC[Se]CCN(C)C
output: 11.8

---

Test system: Rattus norvegicus
Assay: Organ distribution in rat blood 2 hr after intravenous injection
Assay type: ADME, organism-based
Settings: in vivo
TEST READOUT: Dose/organ (%)
# unit: % | format: bare number

SMILES NOTATION	ASSAYED TARGET	TEST READOUT	OUTPUT UNIT	OBS VALUE
C[N+](C)(C)CC[Se]CC[N+](C)(C)C	Rattus norvegicus	Dose/organ	%	0.36
CC(C)N(CC[Se]CCN(C(C)C)C(C)C)C(C)C	Rattus norvegicus	Dose/organ	%	1.04
C1CCN(CC[Se]CCN2CCCCC2)CC1	Rattus norvegicus	Dose/organ	%	0.65

input: Hi! What's the reported Dose/organ for C1CN(CC[Se]CCN2CCOCC2)CCO1 on Rattus norvegicus?
output: 2.46

input: Hi! What's the reported Dose/organ for CN(C)CC[Se]CCN(C)C on Rattus norvegicus?
output: 0.53

---

Test system: Rattus norvegicus
Test: Organ distribution in rat kidney 2 minutes after intravenous injection
Assay type: ADME, organism-based
Conditions: in vivo
TEST READOUT: Dose/organ (%)
# unit: % | format: bare number

SMILES NOTATION	OUTPUT UNIT	Dose/organ
C1CN(CC[Se]CCN2CCOCC2)CCO1	%	9.89
CN(C)CC[Se]CCN(C)C	%	9.46
C1CCN(CC[Se]CCN2CCCCC2)CC1	%	7.14

Here is another compound to look at.
input: Hi! What's the reported Dose/organ for CC(C)N(CC[Se]CCN(C(C)C)C(C)C)C(C)C on Rattus norvegicus?
output: 11.4
